Assign pEC50 to each entry below.
Test system: Hepatitis B virus
Assay: Antiviral activity against 3TC-resistant HBV with polymerase L180M mutation infected in HepG2.2.15 cells assessed as nucleic acid and protein levels dosed daily for 9 days and measured 24 hrs after last treatment by Southern blot hybridization
Assay type: functional, organism-based, HepG2 2.2.15
Settings: Hepatitis B virus, HepG2 2.2.15
Give bare numbers, as −log10 of the molar value.

Working through the 3 compounds below one at a time, give pEC50 for each.
1. CC(C)(C)C(=O)OCOP(=O)(COCCn1cnc2c(N)ncnc21)OCOC(=O)C(C)(C)C
2. CO[C@@H]1[C@H](OP(=O)(OC[C@H]2O[C@@H](n3cnc4c(N)ncnc43)C[C@@H]2O)SCOC(=O)OC(C)C)[C@@H](CO)O[C@H]1n1ccc(=O)[nH]c1=O (stereo partly drawn)
3. Nc1ccn([C@@H]2CS[C@H](CO)O2)c(=O)n1

Response given:
5.68
5.68
5.28

* * *

Experiment: Cytotoxicity against MDBK cells after 24 hrs by MTT assay
Assay type: cell-based, Bos taurus
Settings: cattle
Assign CC50 at 24 h to each entry below.

{"columns": ["MOLECULE", "CC50 at 24 h"],
 "data": [
  ["CO[C@@H]1[C@H](OP(=O)(OC[C@H]2O[C@@H](n3cnc4c(N)ncnc43)C[C@@H]2O)SCOC(=O)C(C)(C)C)[C@@H](CO)O[C@H]1n1ccc(=O)[nH]c1=O (stereo partly drawn)", "> 1 mM"],
  ["CO[C@@H]1[C@H](OP(=O)(S)OC[C@H]2O[C@@H](n3cnc4c(N)ncnc43)C[C@@H]2O)[C@@H](CO)O[C@H]1n1ccc(=O)[nH]c1=O (stereo partly drawn)", "> 1 mM"]
]}

# input for lookup
Challenge: What value of CC50 at 24 h has been recorded for this entry: CO[C@@H]1[C@H](OP(=O)(OC[C@H]2O[C@@H](n3cnc4c(N)ncnc43)C[C@@H]2O)SCOC(=O)OC(C)C)[C@@H](CO)O[C@H]1n1ccc(=O)[nH]c1=O (stereo partly drawn)
Response given: > 1 mM

* * *

Assign CC50 at 24 h to each entry below.
Assay: Cytotoxicity against human HFF cells after 24 hrs by MTT assay
Assay type: cell-based

{"columns": ["COMPOUND", "CC50 at 24 h"],
 "data": [
  ["CO[C@@H]1[C@H](OP(=O)(S)OC[C@H]2O[C@@H](n3cnc4c(N)ncnc43)C[C@@H]2O)[C@@H](CO)O[C@H]1n1ccc(=O)[nH]c1=O (stereo partly drawn) [INARIGIVIR]", "> 1000 µM"],
  ["CO[C@@H]1[C@H](OP(=O)(OC[C@H]2O[C@@H](n3cnc4c(N)ncnc43)C[C@@H]2O)SCOC(=O)C(C)(C)C)[C@@H](CO)O[C@H]1n1ccc(=O)[nH]c1=O (stereo partly drawn)", "> 1000 µM"]
]}

Challenge: What value of CC50 at 24 h has been recorded for this entry: CO[C@@H]1[C@H](OP(=O)(OC[C@H]2O[C@@H](n3cnc4c(N)ncnc43)C[C@@H]2O)SCOC(=O)OC(C)C)[C@@H](CO)O[C@H]1n1ccc(=O)[nH]c1=O (stereo partly drawn) [INARIGIVIR SOPROXIL]
Response given: > 1000 µM

* * *

Tested on: Hepatitis B virus
Experiment: Antiviral activity against 3TC-resistant HBV with polymerase LMMV mutation infected in HepG2.2.15 cells assessed as nucleic acid and protein levels dosed daily for 9 days and measured 24 hrs after last treatment by Southern blot hybridization
Assay type: functional, organism-based, HepG2 2.2.15
Conditions: Hepatitis B virus, HepG2 2.2.15
Assign pEC50 to each entry below.
Answers are plain numbers, as −log10 of the molar value.

{"columns": ["COMPOUND", "pEC50"],
 "data": [
  ["CO[C@@H]1[C@H](OP(=O)(OC[C@H]2O[C@@H](n3cnc4c(N)ncnc43)C[C@@H]2O)SCOC(=O)OC(C)C)[C@@H](CO)O[C@H]1n1ccc(=O)[nH]c1=O (stereo partly drawn) [INARIGIVIR SOPROXIL]", 5.51]
]}

# input for lookup
Challenge: What value of pEC50 has been recorded for this entry: CC(C)(C)C(=O)OCOP(=O)(COCCn1cnc2c(N)ncnc21)OCOC(=O)C(C)(C)C [ADEFOVIR DIPIVOXIL]
Response given: 5.66

* * *

Assay: Half life in simulated gastric fluid after 1 hr by reverse phase HPLC
Type: physicochemical
ATTRIBUTE MEASURED: half-life

{"columns": ["MOLECULE", "half-life"],
 "data": [
  ["CO[C@@H]1[C@H](OP(=O)(OC[C@H]2O[C@@H](n3cnc4c(N)ncnc43)C[C@@H]2O)SCOC(=O)OC(C)C)[C@@H](CO)O[C@H]1n1ccc(=O)[nH]c1=O (stereo partly drawn)", "> 1 h"],
  ["CO[C@@H]1[C@H](OP(=O)(OC[C@H]2O[C@@H](n3cnc4c(N)ncnc43)C[C@@H]2O)SCOC(=O)C(C)(C)C)[C@@H](CO)O[C@H]1n1ccc(=O)[nH]c1=O (stereo partly drawn)", "> 1 h"]
]}

Challenge: What value of half-life has been recorded for this entry: CO[C@@H]1[C@H](OP(=O)(S)OC[C@H]2O[C@@H](n3cnc4c(N)ncnc43)C[C@@H]2O)[C@@H](CO)O[C@H]1n1ccc(=O)[nH]c1=O (stereo partly drawn)
Response given: < 0.25 h
